Reported values of EC50 (read off the curve) for individual entries
Molecular target: recombinant human CD38 (human, UniProt P28907 43-300, limits assumed)
Experiment: ELISA: plate coated with 1 ug/ml recombinant human CD38 ECD, serially diluted antibody, OD450

binder: 23D1 (antibody, human IgG1, kappa, V domains shown, Rabbit-human chimeric anti-CD38: rabbit VH and VL on human IgG1 and kappa constant regions) VH: QELVESGGGLFQPGGSLALTCKASGFSLSNIYVMCWVRQAPGKGLEWIACIGTGSGDTDYATWAKGRFTISKTSSTTVTLQMTSLTAADTATYFCARDPGAGTWNLWGPGTLVTVSS VL: DIVMTQTPSSVEAAVGGTVTIKCQASQTIGSRLAWYQQKPGQPPKLLIYSASTLASGVSSRFKGSGSGTQFTLTISDLDSADAATYYCQSYYYTSTSYPNAFGGGTEVVVKR
EC50 (read off the curve): ~0.06 nM

Using the record for 27F6 (antibody, human IgG1, kappa, V domains shown, Rabbit-human chimeric anti-CD38: rabbit VH and VL on human IgG1 and kappa constant regions) VH: QSLEESGGGLVKPGASLTLTCKASGFSFSSGCDMCWVRQAPGKGLEWISCIYTGSGSTYYANWAKGRFTISRTSSTTVTLQMTSLTAADTATYFCAGDSDYLGLWGPGTLVTVSS VL: DIVMTQTPSSVEAAVGGTVTIKCQASQNIGNYLAWYQQKPGQPPKVLIYRASTLASGVPSRFKGSGSGTHFTLTISDLESADAATYYCQSYYYTTDDNYRSWAFGGGTEVVVKR , report its EC50 (read off the curve).
~0.06 nM

Using the record for 25F12 (antibody, human IgG1, kappa, V domains shown, Rabbit-human chimeric anti-CD38: rabbit VH and VL on human IgG1 and kappa constant regions) VH: RSLEESGGRLVTPGTPLTLTCTTSGFSLSSYDMSWVRQAPGKGLEWIGYITYGGNIYYATWAKGRFTTSKTSTTVDLKITSPTTEDTATYFCARTLYTGGRYYFSLWGPGTLVTVSS VL: AQVLTQTPSSVSAVVGGTVTINCQSSQSIANSNEVAWYQQKLGQPPKLLIYDASTLASGVPSRFSGSGSGTQFTLIISGVQSDDAATYYCQGTVYDNVWYAAFGGGTEVVVKR , report its EC50 (read off the curve).
~0.06 nM

Using the record for 18E4 (antibody, human IgG1, kappa, V domains shown, Rabbit-human chimeric anti-CD38: rabbit VH and VL on human IgG1 and kappa constant regions) VH: QSLEESGGDLVKPGASLTLTCTASGFSFNNYWICWIRQAPGKGLEWVACIYSPSGDIKYYANWAKGRFTVSKTSSTTVTLQMTSLTGADTATYFCARELSGSSYEGYFESWGPGTLVTVSS VL: AQVLTQTPSSVSAAVGGTVTINCQCSQSVYGHNWLAWYQHKPGQPPKLLMYRASNLASGVPSRFKGSGSGSQFTLTIGEVQSDDAATYYCQGYYNGGSYAFGGGTEVVVRR , report its EC50 (read off the curve).
~0.06 nM

Using the record for 17E9 (antibody, human IgG1, kappa, V domains shown, Rabbit-human chimeric anti-CD38: rabbit VH and VL on human IgG1 and kappa constant regions) VH: QSVEESGGRLVTPGTPLTLTCTASGFSLSRYYVTWVRQAPGKGLEWIGIIYISGTTYYATWAKGRFTISKSATTVDLRIASPTTEDTATYFCAAAWPVGTYVLPLWGPGTLVTVSS VL: AAVLTQTPSPVSAAVGGTVTIKCQSSQSVVNANNLSWYQQKPGQPPKLLIYLASTLASGVPSRFSGSGSGTQFTLTISSVQSDDAATYYCLGVYDDDGDNAFGGGTEVVVKR , report its EC50 (read off the curve).
~0.06 nM
